- test_target: PMN 5-lipoxygenase (Rattus norvegicus)
- measurement_protocol: Inhibition of PMN 5-lipoxygenase in the rat (LTB4 by RIA, A23187-stimulated PMN)
- Type: cell-based, rat (male Sprague-Dawley)
- particulars: dose 0.1 mg/ml
- Method: 2. Inhibition of PMN 5-lipoxygenase in the rat Methods Male Sprague-Dawley rates under ether anesthesia were injected i.p. with 8 mls of 12% aqueous sodium caseinate. […] The experiments were run as follows: 0.5μ of test compound in DMSO or 0.5 μl DMSO alone was added to reaction tubes. […] The precipitated proteins were removed by centrifugation and the supernatant fluid was analyzed via RIA or HPLC. […]
assay_endpoint: inhibition at 100 µg/mL (%)

1. CC(=O)Oc1c(-c2ccccc2)sc2nc(Cl)ccc12: 63
2. COc1cccc(-c2sc3ncccc3c2O)c1: 100
3. COc1ccccc1-c1sc2ncccc2c1OC(C)=O: 73
4. COc1ccc(-c2sc3ccncc3c2OC(C)=O)cc1: 80

====

- test_target: PMN 5-lipoxygenase (Rattus norvegicus, UniProt P12527)
- Sequence (P12527 whole entry): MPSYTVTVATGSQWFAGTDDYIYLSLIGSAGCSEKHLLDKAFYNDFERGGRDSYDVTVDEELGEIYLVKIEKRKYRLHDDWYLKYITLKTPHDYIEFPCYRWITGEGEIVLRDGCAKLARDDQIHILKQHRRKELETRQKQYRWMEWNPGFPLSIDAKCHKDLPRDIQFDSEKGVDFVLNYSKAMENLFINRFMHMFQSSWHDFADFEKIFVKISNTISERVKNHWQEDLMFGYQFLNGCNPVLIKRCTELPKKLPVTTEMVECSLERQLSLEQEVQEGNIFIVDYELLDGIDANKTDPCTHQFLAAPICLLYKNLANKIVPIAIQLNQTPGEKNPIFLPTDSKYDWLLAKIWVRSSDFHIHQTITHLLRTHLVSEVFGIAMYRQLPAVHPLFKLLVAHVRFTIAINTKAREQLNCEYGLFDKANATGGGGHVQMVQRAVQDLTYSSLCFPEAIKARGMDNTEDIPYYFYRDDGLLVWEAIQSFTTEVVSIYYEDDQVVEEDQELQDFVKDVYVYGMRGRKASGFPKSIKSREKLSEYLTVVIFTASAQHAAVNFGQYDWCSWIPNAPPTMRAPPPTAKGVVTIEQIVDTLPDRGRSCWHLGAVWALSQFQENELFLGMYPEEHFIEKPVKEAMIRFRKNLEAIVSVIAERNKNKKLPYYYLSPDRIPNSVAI
- measurement_protocol: Inhibition of PMN 5-lipoxygenase in the rat (LTB4 by RIA, A23187-stimulated PMN)
- Assay type: cell-based, rat (male Sprague-Dawley)
- particulars: dose 0.03 mg/ml
assay_endpoint: inhibition at 30 µg/mL (%)

1. Oc1c(-c2cccnc2)sc2ncccc12 [drawing 24, N=7, R=H, X1=H, X2=H]: 0

P = CC(=O)Oc1c(-c2ccccc2)sc2nc(C(C)(C)C)ccc12
Q = COc1ccc(-c2sc3cc(C)nc(C)c3c2OC(C)=O)cc1
stdin: Between P and Q , which one shows the smaller inhibition at 30 µg/mL number? Let me know the label of the one you choose.
stdout: Q

1 = COc1ccccc1-c1sc2ncccc2c1OC(C)=O
2 = COc1cccc(-c2sc3ncccc3c2O)c1
stdin: Parameter metric = inhibition at 30 µg/mL. Return the lower-valued option from 1 and 2 . I would appreciate it if you answered with the label of your choice.
stdout: 1

====

- test_target: PMN 5-lipoxygenase (Rattus norvegicus, UniProt P12527)
- measurement_protocol: Inhibition of PMN 5-lipoxygenase in the rat (LTB4 by RIA, A23187-stimulated PMN)
- Type: cell-based, rat (male Sprague-Dawley)
- particulars: dose 0.1 mg/ml
assay_endpoint: inhibition at 100 µg/mL (%)

1. CC(=O)Oc1c(-c2ccccc2)sc2nccc(Cl)c12: 32
2. COc1ccc(-c2sc3cnccc3c2O)cc1: 79
3. CC(=O)Oc1c(-c2ccc(C#N)cc2)sc2ncccc12: 77
4. COc1ccc(-c2sc3ncccc3c2O)cc1: 100
5. CC(=O)Oc1c(-c2ccccc2)sc2ncccc12: 100

1 = Cc1cc2sc(-c3ccccc3)c(O)c2c(C)n1
2 = CC(=O)Oc1c(-c2ccccc2)sc2ccncc12
stdin: Could you determine which record has the numerically smaller inhibition at 100 µg/mL? Candidates: 1 and 2 In your reply, give the label of the chosen option.
stdout: 1

====

- test_target: PMN 5-lipoxygenase (Rattus norvegicus)
- measurement_protocol: Inhibition of PMN 5-lipoxygenase in the rat (LTB4 by RIA, A23187-stimulated PMN)
- Format: cell-based, rat (male Sprague-Dawley)
- particulars: dose 0.3 mg/ml
assay_endpoint: inhibition at 300 µg/mL (%)

1. COc1ccc(-c2sc3cc(C)nc(C)c3c2OC(C)=O)cc1: 75
2. Cc1cc2sc(-c3ccccc3)c(O)c2c(C)n1 [N=5, R=H, X1=4-CH3,6-CH3, X2=H]: 90
3. CC(=O)Oc1c(-c2ccc(C#N)cc2)sc2ncccc12 [N=7, R=(CO)CH3, X1=H, X2=p-CN]: 100
4. COc1ccc(-c2sc3ccncc3c2O)cc1 [N=5, R=H, X1=H, X2=p-OCH3]: 100
5. COc1ccc(-c2sc3ccncc3c2OC(C)=O)cc1 [N=5, R=(CO)CH3, X1=H, X2=p-OCH3]: 99
6. Oc1c(-c2cccnc2)sc2ncccc12 [drawing 24, N=7, R=H, X1=H, X2=H]: 94
7. COc1cccc(-c2sc3ncccc3c2OC(C)=O)c1 [N=7, R=(CO)CH3, X1=H, X2=m-OCH3]: 100

====

- test_target: UniProt:P12527
- measurement_protocol: Inhibition of PMN 5-lipoxygenase in the rat (LTB4 by RIA, A23187-stimulated PMN)
- Format: cell-based, rat (male Sprague-Dawley)
- particulars: dose 0.1 mg/ml
assay_endpoint: inhibition at 100 µg/mL (%)

1. Oc1c(-c2ccccc2)sc2ncccc12: 100
2. Oc1c(-c2ccc(F)cc2)sc2ncccc12: 99

I = Oc1c(-c2cccnc2)sc2ncccc12 [drawing 24, N=7, R=H, X1=H, X2=H]
II = COc1ccc(-c2sc3ncccc3c2OC(C)=O)cc1
stdin: // pick larger inhibition at 100 µg/mL from pair: I vs II Pick one and reply with its label.
stdout: II
